Test system: lepidopteran larvae: cabbage loopers (Trichoplusia ni) and beet armyworms (Spodoptera exigua)
Assay type: in vivo
Settings: leaf discs; 48 hr; insecticide + buffered amine oxide system PO4, 1218, 200:1; PPM: Chlorantranilopril 60, Acephate 70, Methoxyfenozide 100, Spinosad 30, Permethrin 10, Indoxacarb 50
Procedure: A second series of tests involved romaine lettuce discs approximately ⅝ inch in diameter. (L. sativa). They were dipped in the treatment solution one second per disc. This test involved the 5/5 configuration, i.e., 5 treated and 5 untreated. […] Damage was evaluated in 5% increments based on total disc area. […]
measure: Percent Lepidopteran Damage to Romaine Lettuce 48 hr (%)
Give just the number in %; leave the unit off.

compound	measured number
CNC(=O)c1cc(Cl)cc(C)c1NC(=O)c1cc(Br)nn1-c1ncccc1Cl	12.5

Consider the compound COC(=O)N(C(=O)N1CO[C@@]2(C(=O)OC)Cc3cc(Cl)ccc3C2=N1)c1ccc(OC(F)(F)F)cc1 and give its measured Percent Lepidopteran Damage to Romaine Lettuce 48 hr.
34.5

Consider the compound COc1cccc(C(=O)NN(C(=O)c2cc(C)cc(C)c2)C(C)(C)C)c1C [Methoxyfenozide] and give its measured Percent Lepidopteran Damage to Romaine Lettuce 48 hr.
87.0

Consider the compound CC1(C)C(C=C(Cl)Cl)C1C(=O)OCc1cccc(Oc2ccccc2)c1 (centres unmarked) and give its measured Percent Lepidopteran Damage to Romaine Lettuce 48 hr.
3.0

Consider the compound COP(=O)(NC(C)=O)SC (centres unmarked) [Acephate] and give its measured Percent Lepidopteran Damage to Romaine Lettuce 48 hr.
32.5

This collection of values is drawn from patent US10952433B2.
